Hello, the source for this data is patent US20250152585A1, in case you need it.

Molecular target: full length N-terminally FLAG-tagged PARP1 (Homo sapiens, UniProt P09874)
Sequence (P09874 whole entry): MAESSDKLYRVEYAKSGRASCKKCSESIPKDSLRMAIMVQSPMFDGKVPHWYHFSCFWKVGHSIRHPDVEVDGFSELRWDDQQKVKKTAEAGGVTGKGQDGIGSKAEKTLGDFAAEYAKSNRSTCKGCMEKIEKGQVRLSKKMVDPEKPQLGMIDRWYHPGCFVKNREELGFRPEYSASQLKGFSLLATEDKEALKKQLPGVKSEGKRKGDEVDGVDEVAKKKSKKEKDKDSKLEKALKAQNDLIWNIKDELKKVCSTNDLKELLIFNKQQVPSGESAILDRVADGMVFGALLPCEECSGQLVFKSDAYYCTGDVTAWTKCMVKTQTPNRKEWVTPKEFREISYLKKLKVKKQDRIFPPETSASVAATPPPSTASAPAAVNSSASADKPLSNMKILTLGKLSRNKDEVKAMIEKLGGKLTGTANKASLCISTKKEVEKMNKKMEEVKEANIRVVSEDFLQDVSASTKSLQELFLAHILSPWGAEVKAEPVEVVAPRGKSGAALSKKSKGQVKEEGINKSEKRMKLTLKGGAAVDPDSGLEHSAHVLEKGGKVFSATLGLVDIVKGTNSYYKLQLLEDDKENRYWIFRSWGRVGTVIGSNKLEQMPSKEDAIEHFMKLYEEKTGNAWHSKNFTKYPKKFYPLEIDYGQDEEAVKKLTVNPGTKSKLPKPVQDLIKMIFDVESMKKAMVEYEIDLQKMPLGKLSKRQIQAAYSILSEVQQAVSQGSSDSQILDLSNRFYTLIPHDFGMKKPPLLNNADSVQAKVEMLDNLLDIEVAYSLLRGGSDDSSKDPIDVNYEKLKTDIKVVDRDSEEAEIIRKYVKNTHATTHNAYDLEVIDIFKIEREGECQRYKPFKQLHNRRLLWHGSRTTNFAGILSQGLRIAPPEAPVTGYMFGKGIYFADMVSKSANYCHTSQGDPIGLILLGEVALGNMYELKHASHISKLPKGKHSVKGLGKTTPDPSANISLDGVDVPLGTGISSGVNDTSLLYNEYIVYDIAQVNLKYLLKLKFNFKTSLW
Test: PARP1 biochemical DELFIA assay (auto-PARylation)
Set-up: recombinant full length human N-terminally FLAG-tagged PARP1
Settings: binned IC50, PARP1 biochemical DELFIA assay
pIC50: −log10 of the molar value.
Please provide measured pIC50 for the entries that follow.

>>> observed_result("CNC(=O)c1ccc(N2CCC(N3CCCC(c4ncc(C)c(=O)[nH]4)C3)CC2)cn1 (single isomer, unassigned) [Compound 33b]")
"7.00 to 8.00"

Provide pIC50 values for the following items, in order.
1. CCc1cnc(C2CCN(C3CCC(F)(F)CC3)C2)[nH]c1=O (single isomer, unassigned) [Compound 38b]
2. CNC(=O)c1ccc(N2CCC(N3CCC(c4nc5onc(C)c5c(=O)[nH]4)C3)CC2)cn1 (single isomer, unassigned) [Compound 149b]
3. CNC(=O)c1ccc(OCCCN2CCCC(c3nc4ccccc4c(=O)[nH]3)C2)cn1 (single isomer, unassigned) [Compound 7b]
4. CNC(=O)c1ccc(N2CCC(N3CCC(c4nc5ccccc5c(=O)[nH]4)C3)CC2)c(C(F)(F)F)n1 (single isomer, unassigned) [Compound 139b]
5. CNC(=O)c1ccc(N2CCC(N3CCCC(c4nc5onc(C)c5c(=O)[nH]4)C3)CC2)cn1 (single isomer, unassigned) [Compound 159a]
6. CNC(=O)c1ccc(N2CCC(N3CCC(C)(c4nc5ccccc5c(=O)[nH]4)C3)CC2)cn1 (single isomer, unassigned) [Compound 67a]

["5.00 to 6.00", "5.00 to 6.00", "6.00 to 7.00", "7.00 to 8.00", "< 5.00", "6.00 to 7.00"]
